Source: the supplement of paper PMC10567573

B1: TBX5 (parent)
chain: YQNHKITQLKIENNPFAKGFRGSD

variants of: B1; experiment: protein stability index of a GFP-peptide fusion (GPS, HEK-293T) (PSI 1-6); higher = more stable; conditions: c terminus: a fixed tail appended;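 also: lentivirally expressed fusions sorted by FACS into six bins by GFP to DsRed ratio, PSI derived from sequencing read proportions per bin multiplied by bin number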
The entries below are paired with their reported protein stability index.
READOUT_NAME: protein stability index

| MUTATION_DESCRIPTOR | READOUT_NAME | OBSERVED |
| --- | --- | --- |
| D24C | protein stability index | 2.25 |
| I11A | protein stability index | 2.36 |
| S23C | protein stability index | 2.49 |
| E12H | protein stability index | 2.3 |
| Q8M | protein stability index | 2.2 |
| P15H | protein stability index | 2.35 |
| G19L | protein stability index | 2.05 |
